target: human melanocortin 4 receptor (MC4R) (human, UniProt P32245 1-332); experiment: cell-based or functional assay
Sequence (P32245 whole entry): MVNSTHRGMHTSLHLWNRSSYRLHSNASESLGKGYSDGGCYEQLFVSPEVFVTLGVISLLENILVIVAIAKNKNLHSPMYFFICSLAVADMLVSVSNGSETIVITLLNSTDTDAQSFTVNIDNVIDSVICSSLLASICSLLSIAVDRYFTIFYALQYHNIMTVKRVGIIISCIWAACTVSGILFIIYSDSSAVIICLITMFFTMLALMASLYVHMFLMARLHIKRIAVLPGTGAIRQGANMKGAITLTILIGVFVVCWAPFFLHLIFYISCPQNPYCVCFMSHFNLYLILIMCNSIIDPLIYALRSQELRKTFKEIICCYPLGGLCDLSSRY
Positions of bridges follow the written chain, without caps; N, C: chain ends. No end group written: not given here.
Measured Property: Max Activation % (%)
The response must be a number in % with no trailing unit.

Lookup: What Max Activation % value was documented for this binder, LDPFFRWKVP (lactam 2-8) [B3] ?
Found: 4.41

Lookup: What Max Activation % value was documented for this binder, LPWRWVP [C4] ?
Found: -6.88

Turning to the following binder.
Lookup: What Max Activation % value was documented for this binder, IDPFFRWKVP [B8] ?
Found: 13.6
